# Tested on: Salm.typh. R 172
QUANTITY NAME: MIC (µg/mL)
Form entry: value (µg/mL) — number only.

**Q:** Suppose we examine the molecule Cc1noc(CC(=O)N[C@@H]2C(=O)N3C(C(=O)O)=C(CSc4nnnn4C)CS[C@H]23)n1 ; what MIC value has been reported?
**A:** 1.5

**Q:** # repeat for Cn1nnnc1SCC1=C(C(=O)O)N2C(=O)[C@@H](NC(=O)Cc3nc(CC(=O)O)no3)[C@H]2SC1
**A:** 0.75

**Q:** # repeat for CCc1nc(CC(=O)N[C@@H]2C(=O)N3C(C(=O)O)=C(CSc4nnc(C)s4)CS[C@H]23)no1
**A:** 50

**Q:** # repeat for Cc1nc(CC(=O)N[C@@H]2C(=O)N3C(C(=O)O)=C(CSc4nnnn4C)CS[C@H]23)no1
**A:** 1.5
